Molecular target: UniProt K4FQI5
Assay: Functional biochemical assay to identify treatments for viral infectious disease that targets West Nile NS2B-NS3 protease. Utilizing a direct enzyme activity measurement method, reading the fluorescence intensity is used to characterize the relative potency of inhibitors as IC50.
A collection of molecules and their measured pIC50
Would you please state pIC50, meaning minus log10 of the concentration in mol/L, as a bare number?

[[record]]
entry_smiles = "Cc1cc(-c2ccc([C@@H](NC(=O)OCc3ccccc3)C(=O)Nc3cccc(CN)c3)cc2)cs1"
numeric_value = 5.47


The molecule listed as O=C(Nc1ccc2c(c1)CNC2)c1cc(F)cc(-c2ccncc2)c1 shows pIC50 equal to 5.44

Item: O=C(NC1CCOCC1)[C@H](Nc1ccc2c(c1)CNC2)c1cc(Cl)cc2[nH]ncc12 | pIC50: 6.94

Form: molecule = CS(=O)(=O)N1CC[C@]2(C1)C(=O)Nc1cccc(C(=O)Nc3ccc4c(c3)CNC4)c12 ; pIC50 = 5.20

* * *

Target: NS3 (West Nile virus, UniProt K4FQI5)
Sequence (K4FQI5 whole entry): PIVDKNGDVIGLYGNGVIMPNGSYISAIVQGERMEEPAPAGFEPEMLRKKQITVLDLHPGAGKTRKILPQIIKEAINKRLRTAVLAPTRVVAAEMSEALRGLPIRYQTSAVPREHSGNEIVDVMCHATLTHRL
Assay: Functional biochemical assay to identify treatments for viral infectious disease that targets West Nile NS2B-NS3 protease. Utilizing a direct enzyme activity measurement method, reading the fluorescence intensity is used to characterize the relative potency of inhibitors as IC50.
IC50 values for the molecules below.
A number alone suffices; assume µM.

Example entries and their recorded answers appear below.
[[record]]
molecule = "O=C(Nc1ccc2c(c1)CNC2)c1cc(F)cc(/C=C/c2ccccc2)c1"
readout_name = "IC50"
numeric_value = 2.91

[[record]]
molecule = "NCc1cccc(NC(=O)[C@H](NC(=O)OCc2ccccc2)C2CCC(c3ccccc3)CC2)c1 (stereo partly specified)"
readout_name = "IC50"
numeric_value = 8.31


For reference, reported IC50 for CCCn1ncc2c(C(=O)Nc3ccc4c(c3)CNC4)cc(Cl)cc21 stands at 12.5

Lookup result for N[C@H]1Cc2ccc(NC(=O)c3cc(Cl)cc4[nH]ncc34)cc2C1 ; measured IC50: 51.6

Record summary for CNC(=O)[C@H](Nc1ccc2c(c1)CNC2)c1cc(Cl)cc2[nH]c(-c3ccccc3)nc12 : reported IC50 = 0.281

Form field IC50, entry O=C(Nc1cc2c(cc1C1CC1)CNC2)c1cc(F)cc2[nH]ncc12 : 0.832

Query Cn1ccc(-c2cc(F)cc(C(=O)Nc3ccc4c(c3)CNC4)c2)cc1=O yields IC50 of 2.23

Input CC(C)(c1nc2c(C(=O)Nc3ccc4c(c3)CNC4)cc(F)cc2[nH]1)S(C)(=O)=O . Output IC50: 9.71

For record C=CC[C@H]1NCc2cc(N[C@H](C(=O)NC(C)C)c3cc(Cl)cc4[nH]ncc34)ccc21 the listed IC50 is 0.886

Input O=C(Nc1cc(Cl)cc(C(=O)Nc2cccc(-n3nn[nH]c3=O)c2)c1)OCc1ccccc1 . Output IC50: 32.9

So, O=C(Nc1ccc2c(n1)CNC2)c1cc(Cl)cc2[nH]ncc12 ? Its IC50 was 35.2

Lookup result for CSCCCNC(=O)[C@H](Nc1ccc2c(c1)CNC2)c1cc(Cl)cc(C2CC2)c1 ; measured IC50: 0.573

IC50 in this record for O=C(Nc1ccc2c(c1)CNC2)c1cc(Cl)cc2cc[nH]c12 : 16.3

Entry O=C(Nc1ccc2c(c1)CNC2)c1cc(Br)cc2[nH]c(=O)[nH]c12 , IC50 reported as 4.67

Lab book: IC50 of O=C(Nc1ccc2c(c1)CNC2)c1cc(F)cc2[nH]c(CCc3cccnc3)nc12 noted as 3.31

For reference, reported IC50 for O=C(Nc1ccc2c(c1)CNC2)c1cccc2[nH]ncc12 stands at 4.33
